meta.source: patent US9156801B2

System: RKO cell line
assay-procedure: solid tumor cell growth inhibition, MTT
Type: cell-based
conditions: Homo sapiens, 72 h
measured-parameter: IC50 (µg/mL)
Just the number in µg/mL, nothing appended.

[
  {
    "molecule": "COC(=O)[C@]12CCC(C)(C)CC1C1=CCC3[C@@]4(C)CC(C(=O)NCCCN5CCN(C)CC5)C(=O)C(C)(C)C4CC[C@@]3(C)[C@]1(C)CC2 (some centres unmarked) [BS-OA-078]",
    "IC50 [µg/mL]": 3.91
  }
]

Now look at this one.
Look at this molecule and give its reported IC50. CCN(CC)CCCNC(=O)C1C[C@]2(C)[C@H]3CC=C4[C@@H]5CC(C)(C)CC[C@]5(C(=O)OC)CC[C@@]4(C)[C@]3(C)CC[C@H]2C(C)(C)C1=O (some centres unmarked) [BS-OA-035]
2.39

---

Listing of recorded inhibition at 16 µg/mL by entry.
System: NB4 cell line
assay-procedure: leukemia cell growth inhibition, MTT
Format: cell-based
conditions: Homo sapiens, NB-4; NB4, 16 μg/mL compound, 72 h; read-out: IR (cell proliferation inhibition rate)
Please respond with the number in % and leave the unit unwritten.

Here is how some compounds turned out for inhibition at 16 µg/mL.
[
  {
    "compound": "COC(=O)[C@]12CCC(C)(C)CC1C1=CCC3[C@@]4(C)CC(C(=O)NCCCN(C)C)C(=O)C(C)(C)C4CC[C@@]3(C)[C@]1(C)CC2 (some centres unmarked)",
    "inhibition at 16 µg/mL, %": 100
  },
  {
    "compound": "CCN(CC)CCNC(=O)C1C[C@@]2(C)C(CC[C@]3(C)C2CC=C2C4CC(C)(C)CC[C@]4(C(=O)OC)CC[C@]23C)C(C)(C)C1=O (some centres unmarked)",
    "inhibition at 16 µg/mL, %": 99.2
  }
]

# query: inhibition at 16 µg/mL of entry COC(=O)[C@]12CCC(C)(C)C[C@H]1C1=CC[C@@H]3[C@@]4(C)CC(C(=O)NCCN5CCCCC5)C(=O)C(C)(C)[C@@H]4CC[C@@]3(C)[C@]1(C)CC2 (some centres unmarked)
100

Sample COC(=O)[C@]12CCC(C)(C)CC1C1=CCC3[C@@]4(C)CC(C(=O)NCCN5CCCC5)C(=O)C(C)(C)C4CC[C@@]3(C)[C@]1(C)CC2 (some centres unmarked) — what was its inhibition at 16 µg/mL?
100

Which inhibition at 16 µg/mL is reported for this compound? COC(=O)[C@]12CCC(C)(C)C[C@H]1C1=CC[C@@H]3[C@@]4(C)CC(C(=O)NCC5CC5)C(=O)C(C)(C)[C@@H]4CC[C@@]3(C)[C@]1(C)CC2 (some centres unmarked)
11

---

Tested on: Jurkat cell line
assay-procedure: leukemia cell growth inhibition, MTT
Assay type: cell-based
conditions: Homo sapiens, 72 h
measured-parameter: IC50 (µg/mL)
Answer format: numeric, µg/mL implied, no suffix.

[
  {
    "compound": "COC(=O)[C@]12CCC(C)(C)CC1C1=CCC3[C@@]4(C)CC(C(=O)NCCCN5CCN(C)CC5)C(=O)C(C)(C)C4CC[C@@]3(C)[C@]1(C)CC2 (some centres unmarked)",
    "tested-on": "Jurkat cell line",
    "IC50, µg/mL": 2.5
  },
  {
    "compound": "COC(=O)[C@]12CCC(C)(C)CC1C1=CCC3[C@@]4(C)CC(C(=O)NCCN5CCCC5)C(=O)C(C)(C)C4CC[C@@]3(C)[C@]1(C)CC2 (some centres unmarked)",
    "tested-on": "Jurkat cell line",
    "IC50, µg/mL": 2.33
  },
  {
    "compound": "COC(=O)[C@]12CCC(C)(C)CC1C1=CCC3[C@@]4(C)CC(C(=O)NCCc5cccnc5)C(=O)C(C)(C)C4CC[C@@]3(C)[C@]1(C)CC2 (some centres unmarked)",
    "tested-on": "Jurkat cell line",
    "IC50, µg/mL": 9.85
  },
  {
    "compound": "COC(=O)[C@]12CCC(C)(C)CC1C1=CCC3[C@@]4(C)CC(C(=O)NCCc5ccccn5)C(=O)C(C)(C)C4CC[C@@]3(C)[C@]1(C)CC2 (some centres unmarked)",
    "tested-on": "Jurkat cell line",
    "IC50, µg/mL": 10.8
  },
  {
    "compound": "COC(=O)[C@]12CCC(C)(C)CC1C1=CCC3[C@@]4(C)CC(C(=O)NCCCN5CCCC5)C(=O)C(C)(C)C4CC[C@@]3(C)[C@]1(C)CC2 (some centres unmarked)",
    "tested-on": "Jurkat cell line",
    "IC50, µg/mL": 2.38
  },
  {
    "compound": "CCN(CC)CCCNC(=O)C1C[C@@]2(C)C(CC[C@]3(C)C2CC=C2C4CC(C)(C)CC[C@]4(C(=O)O)CC[C@]23C)C(C)(C)C1=O (some centres unmarked)",
    "tested-on": "Jurkat cell line",
    "IC50, µg/mL": 12.6
  },
  {
    "compound": "COC(=O)[C@]12CCC(C)(C)C[C@H]1C1=CC[C@@H]3[C@@]4(C)CC(C(=O)NCCN5CCCCC5)C(=O)C(C)(C)[C@@H]4CC[C@@]3(C)[C@]1(C)CC2 (some centres unmarked)",
    "tested-on": "Jurkat cell line",
    "IC50, µg/mL": 6.15
  }
]

Attention now turns to another entry.
Sample CCN(CC)CCCNC(=O)C1C[C@]2(C)[C@H]3CC=C4[C@@H]5CC(C)(C)CC[C@]5(C(=O)OC)CC[C@@]4(C)[C@]3(C)CC[C@H]2C(C)(C)C1=O (some centres unmarked) — what was its IC50?
1.67

---

Tested on: CNE cell line
assay-procedure: solid tumor cell growth inhibition, MTT
Assay type: cell-based
conditions: Homo sapiens, 16 μg/mL compound, 72 h, read-out: IR (cell proliferation inhibition rate)
Record yes (1) whenever inhibition at 16 µg/mL is at 20% or higher; record no (0) when lower.

A selection of reference data follows.
[
  {
    "compound": "CN(C)CCCNC(=O)C1C[C@@]2(C)C(CC[C@]3(C)C2CC=C2C4CC(C)(C)CC[C@]4(C(=O)O)CC[C@]23C)C(C)(C)C1=O (stereo partly drawn) [BS-OA-109]",
    "group": "yes (1)"
  },
  {
    "compound": "COC(=O)[C@]12CCC(C)(C)CC1C1=CCC3[C@@]4(C)CC(C(=O)NCCC(C)C)C(=O)C(C)(C)C4CC[C@@]3(C)[C@]1(C)CC2 (stereo partly drawn) [BS-OA-031]",
    "group": "no (0)"
  }
]

Quick check: does CN1CCN(CCCNC(=O)C2C[C@]3(C)[C@H]4CC=C5[C@@H]6CC(C)(C)CC[C@]6(C(=O)O)CC[C@@]5(C)[C@]4(C)CC[C@H]3C(C)(C)C2=O)CC1 (stereo partly drawn) [BS-OA-110] have inhibition at 16 µg/mL greater than or equal to 20%?
yes (1)

Evaluate COC(=O)[C@]12CCC(C)(C)C[C@H]1C1=CC[C@@H]3[C@@]4(C)CC(C(=O)NCC5CC5)C(=O)C(C)(C)[C@@H]4CC[C@@]3(C)[C@]1(C)CC2 (stereo partly drawn) [BS-OA-048] : inhibition at 16 µg/mL at minimum 20%?
yes (1)

Test whether the compound COC(=O)[C@]12CCC(C)(C)CC1C1=CCC3[C@@]4(C)CC(C(=O)NC5CC5)C(=O)C(C)(C)C4CC[C@@]3(C)[C@]1(C)CC2 (stereo partly drawn) [BS-OA-034] records inhibition at 16 µg/mL of 20% or higher.
no (0)

Does the compound COC(=O)[C@]12CCC(C)(C)C[C@H]1C1=CC[C@@H]3[C@@]4(C)CC(C(=O)NCCN5CCCCC5)C(=O)C(C)(C)[C@@H]4CC[C@@]3(C)[C@]1(C)CC2 (stereo partly drawn) [BS-OA-004] have recorded inhibition at 16 µg/mL that is 20% or more?
yes (1)

---

Tested on: RKO cell line
assay-procedure: solid tumor cell growth inhibition, MTT
Format: cell-based
conditions: Homo sapiens, 72 h
measured-parameter: IC50 (µg/mL)
Response body: numeric value in µg/mL, unit text excluded.

Solved cases (2 shown):
[
  {
    "compound": "COC(=O)[C@]12CCC(C)(C)CC1C1=CCC3[C@@]4(C)CC(C(=O)NCCc5cccnc5)C(=O)C(C)(C)C4CC[C@@]3(C)[C@]1(C)CC2 (stereo partly drawn)",
    "measured-parameter": "IC50",
    "measured": 16
  },
  {
    "compound": "COC(=O)[C@]12CCC(C)(C)C[C@H]1C1=CC[C@@H]3[C@@]4(C)CC(C(=O)NCCN5CCCCC5)C(=O)C(C)(C)[C@@H]4CC[C@@]3(C)[C@]1(C)CC2 (stereo partly drawn)",
    "measured-parameter": "IC50",
    "measured": 7.4
  }
]

Next, consider the following compound.
Reported IC50 for CCN(CC)CCCNC(=O)C1C[C@@]2(C)C(CC[C@]3(C)C2CC=C2C4CC(C)(C)CC[C@]4(C(=O)O)CC[C@]23C)C(C)(C)C1=O (stereo partly drawn) : what is it?
14.3
